# METHOD: modulators of AGP1-GFP expression in yeast TOR pathway, primary screen, cell-based, multiplex flow cytometry, S. cerevisiae (AID 1887)
# RECORDED_CONDITIONS: 3 h, at 10 µM, stronger effect = higher value
Records with an inconclusive call do not appear.

| MOLECULE | GFP response, % of DMSO [%] |
| --- | --- |
| NCC1(c2ccc3c(c2)OCCO3)CCCC1 | 91.3 |
| CN(C)[C@@H]1C(=O)C(C(N)=O)=C(O)[C@@]2(O)C(=O)C3=C(O)c4c(O)cccc4[C@@](C)(O)[C@H]3[C@H](O)[C@@H]12 | 103 |
| CCN(CC)CCOC(=O)C(O)(c1ccccc1)c1ccccc1 | 94.5 |
| CC(C)[N+](C)(CCC(C(N)=O)(c1ccccc1)c1ccccc1)C(C)C | 106 |
| C[C@]12CCC(=O)C=C1CCC1C2CC[C@@]2(C)C1CC[C@@]2(O)CC#N (stereo not given in full) | 98 |

----------
# TESTED_SYSTEM: Botulinum neurotoxin type A (Clostridium botulinum)
# METHOD: BoNT/A light chain protease inhibitors, biochemical, multiplex microsphere flow cytometry, validation set (AID 588460)
# RECORDED_CONDITIONS: at 10 µM, stronger effect = higher value
ENDPOINT_LABEL: inhibition (%)

| COMPOUND | ENDPOINT_LABEL | RECORDED_RESULT |
| --- | --- | --- |
| CC(=O)Nc1ccc2[nH]c(C)c(CC=C(Cl)Cl)c(=O)c2c1 | inhibition | -1.7 |
| C/C=C/Cn1c(SC)nc2c1c(=O)[nH]c(=O)n2C | inhibition | 0.9 |
| CC(=O)OCC(=O)[C@H]1CC[C@H]2[C@@H]3CCC4=CC(=O)CC[C@]4(C)[C@H]3CC[C@]12C | inhibition | -1.1 |
| CC1(C)Cc2ccccc2C(C(Cc2ccccc2)C(N)=O)=N1 (configuration not stated) | inhibition | 1.1 |
| CCOC(=O)c1ccc(NC(=S)NCCc2ccccc2F)cc1 | inhibition | 2.4 |
| O=C1Nc2ccc3sc4ccccc4c3c2C1=O | inhibition | -0.8 |
| CN1C(=O)NC(c2ccc(O)cc2)C2=C1CN(c1cccc3ccccc13)C2=O (configuration not stated) | inhibition | -1 |
| CC(/C=C1\SC(=O)N(CCCC(=O)O)C1=O)=C\c1ccccc1 | inhibition | 1.3 |
| CN(C)CCC=C1c2ccccc2CCc2ccccc21 | inhibition | 0.2 |
| CC1(C)Cc2ccccc2-c2n[nH]c(=S)n21 | inhibition | 0.5 |
| CN(C)CCN(Cc1ccccc1)c1ccccn1 | inhibition | 0 |
| CC(N=C(NC#N)Nc1ccncc1)C(C)(C)C (configuration not stated) | inhibition | 2.3 |

----------
# METHOD: promoters of myeloid differentiation in arrested cells, primary screen, cell-based, GFP/MAC1 double positive, flow cytometry, validation set (AID 588685)
# RECORDED_CONDITIONS: ER-HoxA9 marrow cells, stronger effect = higher value

| MOLECULE | differentiation response / % |
| --- | --- |
| C[C@H](O)[C@H]1CC[C@H]2[C@@H]3CCC4=CC(=O)CC[C@]4(C)[C@H]3CC[C@]12C | -4.57 |
| OC1CCCCC1N1CCC(c2ccccc2)CC1 (stereo not given) | -1.64 |
| [N-]=[N+]=NC1C[C@H](n2ccc(=O)[nH]c2=O)O[C@@H]1CO (stereo not given in full) | -21.2 |
| Cc1ccc(-n2c(C)cc(/C=C3/C(=O)NC(=O)N(C)C3=O)c2C)cc1 | -14.8 |
| CC[C@]12C=CCN3CCC4(c5cc(Br)c(OC)cc5N(C)C4[C@@](O)(C(=O)OC)[C@@H]1OC(C)=O)C32 (stereo not given in full) | 0 |
